Test system: SF-539
ASSAY_INFO: NCI tumour cell line growth inhibition, 48 h
Calls of active or inactive are those of the source. Rule as the data show it: active = GI50 up to about 1.1 µM and inactive = higher.
API: response.call in active, inactive

**Query** Test call for this compound, please: O=S(=O)(CC#CCS(=O)(=O)c1ccccc1)c1ccccc1
**Result** inactive

**Query** Please share the test call associated with COC1CC(OC2C(C)OC(OC3C(C)OC(OC4C(C)OC(O[C@H]5CC[C@@]6(C)C(=CC[C@]7(O)[C@@H]6C[C@@H](OC(=O)/C=C/c6ccccc6)[C@@]6(C)[C@]7(O)CC[C@@]6(O)C(C)=O)C5)CC4OC)CC3OC)CC2OC)OC(C)C1O (stereo partly specified) .
**Result** inactive

**Query** Please indicate how the test categorized N#Cc1c(-c2ccc(Cl)cc2)c(-c2ccc(Cl)cc2)nn(CCOC(=O)CCC(=O)O)c1=O .
**Result** active

**Query** Recorded call for Nc1nc2c(ncn2CC2CCC(CO)C2)c(=O)[nH]1 (stereo unspecified) ?
**Result** inactive

**Query** // outcome(item) with item = COC(=O)/C=C/c1cc2c(cc1-c1c(C(=O)O)cc(OC)c(OC)c1OC)OCO2
**Result** inactive

**Query** What did the test return for O=C1CC(=O)NC(NN2C(=O)/C(=C/c3ccccc3)N=C2c2ccccc2)=N1 ?
**Result** inactive

**Query** For O=C(Nc1ccccc1)c1cccc([N+](=O)[O-])c1 , which call appears in the assay record?
**Result** inactive

**Query** For this compound, state the assay outcome: Oc1nc2ccccc2c(O)c1Cc1ccccc1
**Result** inactive

**Query** // outcome(item) with item = C=CCC12CC(=O)CCC1CC(=O)C2 (stereo unspecified)
**Result** inactive

**Query** What is the recorded call for this compound in the test? CCN(CC)Cc1cc(Nc2ccnc3ccc4nn(C)nc4c23)ccc1O
**Result** inactive

**Query** What outcome does the record of this test show for Cc1cn2c(/C=N/NC(=N)N)c(-c3ccc([N+](=O)[O-])cc3)nc2s1 ?
**Result** inactive

----------
Tested on: SW-620
ASSAY_INFO: NCI tumour cell line growth inhibition, 48 h
Activity calls are given as the source filed them. No stated cut-off is given here; in the data, active = GI50 up to about 1.1 µM and inactive = higher. Starred links: 1 amine or outer side, 2 acyl side, 3 side chain; linkers in the order of their positions; H or OH if unused. Positions of bridges follow the written chain, without caps; N, C: chain ends. Non-standard residues stand in square brackets, D forms with d. Residues, ends and D or L forms follow the SMILES beside them. Chains are numbered I, II in the order given. ξ: configuration not given here. *: point of attachment. Actinocin(1to9) = Cc1c2oc3c(C)ccc(C(=O)[*:2])c3nc-2c(C(=O)[*:1])c(N)c1=O; NMeF = CN[C@@H](Cc1ccccc1)C(=O)O; NMeV = CN[CH](C(=O)O)C(C)C; ξNMeV = CNC(C(=O)O)C(C)C; Boc = CC(C)(C)OC(=O)*; OBn = c1ccc(CO*)cc1; Sar = CNCC(=O)O
Can you answer with just one of these options? active, inactive

**Query** What did the test return for CC(C)C(C(=O)N(C)[C@H](C(=O)N1CCC[C@H]1C(=O)N(C)[C@@H](Cc1ccccc1)C(=O)OCc1ccccc1)C(C)C)N(C)C(=O)[C@@H](NC(=O)OC(C)(C)C)C(C)C (stereo partly drawn) (Boc-V[ξNMeV][NMeV]P[NMeF]-OBn) ?
**Result** inactive

**Query** Which result was noted for this compound in the test: C#CCNC(CSSCC(N)C(=O)O)C(=O)O (stereo not drawn)
**Result** inactive

**Query** How did this test come out for CCCCn1cnc2c(c(CC#N)nn2-c2ccccc2)c1=N ?
**Result** inactive

**Query** What did the test return for O=C(O)CNS(=O)(=O)c1ccc(NC(=O)c2ccc([N+](=O)[O-])cc2)cc1 ?
**Result** inactive

**Query** GET /call?item= Cc1cc(C)c2cc(N)c(Cl)nc2n1 returns the recorded outcome of this test.
**Result** inactive

**Query** Entry CC(=O)O[C@H]1CCn2c3c(c(C)c21)C(=O)C(N1CC1)=C(C)C3=O : call = ?
**Result** inactive

**Query** // param item: CON(C)C(=O)CCCO ; yields the recorded call
**Result** inactive

**Query** Could you kindly confirm the outcome this assay logged for O=C1/C(=C/c2ccc(Cl)cc2)N=C(c2ccccc2)N1c1nc2ccccc2s1 ?
**Result** inactive

**Query** Each compound tested received a call. Report the one for C[C@]12CCC3[C@@H](CC[C@@H]4c5nonc5CC[C@]34C)C1C/C(=N/O)C2=O (stereo partly drawn) .
**Result** inactive

**Query** Each compound tested received a call. Report the one for CN(C)CCOc1ccc2[nH]c(C(=O)N3CC(CCl)c4c3cc([N+](=O)[O-])c3ccccc43)cc2c1 (stereo not drawn) .
**Result** inactive

**Query** Lab log entry: COC(=O)c1cc2c(cc1O)[C@@H](NC(C)=O)CCc1cc(OC)c(OC)c(OC)c1-2 — outcome as called in the assay?
**Result** active

**Query** What call does the record list for CO/N=C1\CCC2(O)C3Cc4ccc(O)c5c4C2(CCN3CC2CC2)[C@H]1O5 (stereo partly drawn) ?
**Result** inactive

**Query** Test call for this compound, please: NC(=O)[N+](=CC(=S)Nc1ccccc1Cl)C(N)=O
**Result** inactive

**Query** Per the assay record, what outcome was assigned to CC[C@@]1(O)C(=O)OCc2c1cc1n(c2=O)Cc2c-1nc1ccccc1c2/C=N\NC(=O)C(N)CCSC (stereo partly drawn) ?
**Result** active

**Query** Fill in: this test's call for O=C1c2ccccc2C(=O)c2c(O)c(O)cc(O)c21 is ___
**Result** inactive

**Query** Please indicate how the test categorized C=C(C)CNCCN .
**Result** inactive

**Query** Called result for O=[N+]([O-])/C(C(Cl)=C(Cl)Cl)=C(/Cl)Sc1ccccc1
**Result** active

**Query** Which outcome was entered for the compound CC(C)=c1sc(=C(C)C)c2c1=NC(C)(C)N=2 in this test?
**Result** inactive

**Query** For this compound, state the assay outcome: O=C(N/C(=C/c1cccc([N+](=O)[O-])c1)c1nc2cc(Cl)ccc2[nH]1)c1ccccc1
**Result** inactive

**Query** Answer briefly: the call reported for CCOC(=O)/C(C(=O)c1ccccc1)=C1/NCCN1C in this assay.
**Result** inactive

**Query** Kindly provide the recorded test outcome for the following compound: COC(=O)/C=C/c1cc2c(cc1-c1c(C(=O)O)cc(OC)c(OC)c1OC)OCO2
**Result** inactive

**Query** Outcome? CSc1ccc2c(cc1=O)[C@@H](NC(=O)c1ccc(Cl)cc1)CCc1cc(O)c(O)c(O)c1-2
**Result** inactive

**Query** Please let me know the test result on file for Oc1ccc(Br)cc1/C=N/c1c(NC2CCCCC2)oc2ccc(Br)cc12 .
**Result** inactive

**Query** Status in this test for c1ccc(/N=c2\snc3scc(-c4ccccc4)n23)cc1 ?
**Result** inactive

**Query** Dear colleague, could you share the recorded outcome for c1ccc(N2N=C3N(c4ccccc4)C2N3c2ccccc2)cc1 when you have a moment?
**Result** inactive

**Query** // return assay outcome for CCC(C)C1NC(=O)C(NC(=O)c2c3nc4c(C(=O)NC5C(=O)NC(C(C)CC)C(=O)N6CCCC6C(=O)N(C)CC(=O)N(C)C(C(C)C)C(=O)OC5C)ccc(C)c4oc-3c(C)c(=O)c2N)C(C)OC(=O)C(C(C)C)N(C)C(=O)CN(C)C(=O)C2CCCN2C1=O (stereo not drawn) (I: TIP[Sar][NMeV] / II: TIP[Sar][NMeV]; ester I:1-I:C, II:1-II:C; linker I:N-II:N via Actinocin(1to9); configuration not given here)
**Result** active

**Query** Identify the outcome logged in this assay for the compound shown: NC1=NN(c2ccccc2)C(=O)C1C(=O)C(=O)Nc1ccc(Cl)c(Cl)c1 (stereo not drawn)
**Result** inactive

**Query** // param item: Cc1ccc(-c2nc(C)c(C(=O)Nc3ccc(Cl)cc3)s2)cc1 ; yields the recorded call
**Result** inactive

----------
Tested on: NCI-H226
ASSAY_INFO: NCI tumour cell line growth inhibition, 48 h
Activity calls are given as the source filed them. Rule as the data show it: active = GI50 up to about 1.1 µM and inactive = higher.
Could you please report measured GI50 for the items listed next?

The observed GI50 for O=C(NCCCCNCCCNC(=O)OCc1ccccc1)OCc1ccccc1 when tested with NCI-H226 stands at 32 µM (inactive)

Entry Oc1nc2ccccc2c(O)c1Cc1ccccc1 : GI50 on NCI-H226 = > 100 µM (inactive)

Measured on NCI-H226, O=C(OCc1ccccc1)N1c2cc([N+](=O)[O-])ccc2C(=O)N2CCC[C@H]2C1O (stereo not given in full) has a documented GI50 of > 100 µM (inactive)

Tested on NCI-H226: O=C(NCc1ccccc1)c1cc2ccccc2o/c1=N\c1cccc(C(F)(F)F)c1 . Observed GI50: 29.8 µM (inactive)

Summary: CC(C)Oc1ccc(CNC2=NCCO2)c2ccccc12 , NCI-H226, GI50 = 15.7 µM (inactive)
